System: lambsquarters
method: Test B pre-/postemergence herbicide test
Format: in vivo, Chenopodium album
measurement-context: 500 g ai/ha; visual rating 0-100, 0 no effect, 100 complete control; preemergence
assay-readout: Plant response rating, Lambsquarters
Respond numerically, and do not add a unit to the figure.

Which value of Plant response rating, Lambsquarters has been reported for CCn1nc(C(C)(C)C)cc1C(=O)Nc1cccc(C(=O)N(C)CC#N)n1 [Compound 158] in the records?
100

Form field: reported Plant response rating, Lambsquarters of CCN(CC)C(=O)c1cccc(NC(=O)c2cn(C(C)(C)C)nc2C)c1 [Compound 184]
80

Could you share which Plant response rating, Lambsquarters value was measured for CCc1nn(C(C)(C)C)cc1C(=O)Nc1cccc(C(C)=NO)c1 [Compound 188] ?
100

Which Plant response rating, Lambsquarters reading was recorded for the compound CCn1nc(C(C)(C)C)cc1C(=O)Nc1cccc(C#N)c1 [Compound 139] ?
100

====

I'd be grateful if you could share measured Plant response rating, Velvetleaf for these entries.
Test system: velvetleaf
method: Test A pre-/postemergence herbicide test
Type: in vivo, Abutilon theophrasti
measurement-context: Postemergence, 2000 g ai/ha; 0 to 100 scale, 0 no effect, 100 complete control
The answer should be a number; do not append a unit.

Which Plant response rating, Velvetleaf is reported with velvetleaf for this entry: CCNC(=O)c1cccc(NC(=O)c2cn(CC)nc2C(F)(F)F)c1 [Compound 172] ?
15

Quick check: Plant response rating, Velvetleaf on velvetleaf, item CCn1nc(C(C)(C)C)cc1C(=O)Nc1cccc(C(=O)NC2CC2)n1 [Compound 146] ?
35

Item: CCNC(=O)c1cc(C)cc(NC(=O)c2cc(C(C)(C)C)nn2CC)n1 [Compound 150] Test system: velvetleaf Read-out: Plant response rating, Velvetleaf Value: ?
15

velvetleaf / Plant response rating, Velvetleaf / CCCCn1nc(C(C)(C)C)cc1C(=O)Nc1cccc(C(=O)NCC)c1 [Compound 41] : value?
25

Can you look up Plant response rating, Velvetleaf on velvetleaf for CCn1nc(C(C)(C)C)cc1C(=O)Nc1cncc(C(=O)N(C)C)n1 [Compound 287] ?
65

For velvetleaf, provide Plant response rating, Velvetleaf of CCn1nc(C(C)(C)C)cc1C(=O)Nc1cccc(C#N)c1 [Compound 139] please.
40

Form entry - test system: velvetleaf; read-out: Plant response rating, Velvetleaf; molecule: C=CCOC(=O)c1cccc(NC(=O)c2cc(C(C)(C)C)nn2CC)c1C [Compound 94]
25

Give Plant response rating, Velvetleaf (velvetleaf) of the following molecule: Cc1nc(C(C)(C)C)sc1C(=O)Nc1cccc(C(=O)NCC(F)(F)F)c1 [Compound 201]
10

Which Plant response rating, Velvetleaf is reported with velvetleaf for this entry: C#CCNC(=O)c1cccc(NC(=O)c2sc(C(C)(C)C)nc2CC)n1 [Compound 217] ?
30

====

Test system: large crabgrass
method: Test B pre-/postemergence herbicide test
Type: in vivo, Digitaria sanguinalis
measurement-context: Digitaria sanguinalis, post-emergence, postemergence, 500 g ai/ha; scale 0 to 100, 0 is no effect, 100 is complete control; read-out: Crabgrass, Large plant response rating
assay-readout: pest or weed control at 500 g/ha (%)
The response must be a number in % with no trailing unit.

Param item = CCNC(=O)c1ccc(F)c(NC(=O)C2CN(C(C)(C)C)N=C2CC)c1 (stereo not shown) ; retrieve measured pest or weed control at 500 g/ha.
50

// pest or weed control at 500 g/ha lookup, key: `CCc1nn(C(C)C)nc1C(=O)Nc1cccc(C(=O)N(C)C)c1`
10

Could you tell me which pest or weed control at 500 g/ha is on file for CCOC(=O)c1ccc(F)c(NC(=O)C2CC(C(C)(C)C)=NN2CC)c1 (stereo not shown) ?
40

Item `CCNC(=O)c1cc(NC(=O)c2cn(C(C)(C)C)nc2CC)ccc1F` has what recorded pest or weed control at 500 g/ha?
10

====

I'd be grateful if you could share measured Plant response rating, Pigweed for these entries.
Tested on: redroot pigweed
method: Test A pre-/postemergence herbicide test
Assay type: in vivo, Amaranthus retroflexus
measurement-context: Postemergence, 2000 g ai/ha; 0 to 100 scale, 0 no effect, 100 complete control
Description: […] Plants ranged in height from 2 to 10 cm and were in the one- to two-leaf stage for the postemergence treatment. Treated plants and untreated controls were maintained in a greenhouse for approximately ten days, after which time all treated plants were compared to untreated controls and visually evaluated for injury. […]
The response must contain the number and no unit.

Query the reported Plant response rating, Pigweed for redroot pigweed; item: `CCn1nc(C(C)(C)C)cc1C(=O)Nc1cccc(C(=O)NC2CC2)n1`
100

Give redroot pigweed Plant response rating, Pigweed for `CCn1nc(C(C)(C)C)cc1C(=O)Nc1nc(OC)cc(SCF)n1`
0

# value lookup — system redroot pigweed, readout Plant response rating, Pigweed, item `COC(=O)c1cccc(NC(=O)c2cc(C(C)(C)C)nn2C)n1`
0

Notebook: pull reported Plant response rating, Pigweed for redroot pigweed, entry `CCNC(=O)c1cc(C)nc(NC(=O)c2cc(C(C)(C)C)nn2CC)c1`
90

Give Plant response rating, Pigweed (redroot pigweed) of the following compound: `C#CCOC(=O)c1cccc(NC(=O)c2cc(C(C)(C)C)nn2CC)c1`
45

Form field - read-out: Plant response rating, Pigweed; system: redroot pigweed; submitted item: `CCn1nc(C(C)(C)C)cc1C(=O)Nc1cccc(OC(C)C)c1`
100

Record `CCN(CC)C(=O)c1cccc(NC(=O)c2cc(C(C)(C)C)nn2CC)n1` : what is its Plant response rating, Pigweed with redroot pigweed?
100

====

System: redroot pigweed
method: Test A pre-/postemergence herbicide test
Assay type: in vivo, Amaranthus retroflexus
measurement-context: Postemergence, 500 g ai/ha; 0 to 100 scale, 0 no effect, 100 complete control
Everything with Pigweed plant response rating lower than 40 is not met; everything else, including exactly 40, is met.

Could you verify whether the entry `CCN(CC)C(=O)c1cccc(NC(=O)c2cc(C(C)(C)C)nn2CC)n1` shows Pigweed plant response rating of no less than 40?
met

Please indicate if the recorded Pigweed plant response rating for `CCn1nc(C(C)(C)C)cc1C(=O)Nc1cncc(C(=O)NCC(F)(F)F)n1` meets or exceeds 40.
not met

# bool: Pigweed plant response rating of `CCn1nc(C(C)(C)C)cc1C(=O)Nc1cccc(C(=O)OC(C)C)c1C` >= 40
not met

API: above_or_equal(metric=Pigweed plant response rating, cutoff=40) for item `C=CCOC(=O)c1cccc(NC(=O)c2cc(C(C)(C)C)nn2CC)c1`
met

Does the compound `C#CCNC(=O)c1cccc(NC(=O)c2cc(C(C)(C)C)nn2C)n1` have recorded Pigweed plant response rating that is 40 or more?
not met

# check: Pigweed plant response rating of `CCn1nc(C(C)(C)C)cc1C(=O)Nc1cccc(C(=O)NC2CC2)n1` is greater than or equal to 40
met

In plain terms: is recorded Pigweed plant response rating at least 40 for `Cn1nc(C(C)(C)C)cc1C(=O)Nc1cccc2c1CCCC2=NO` ?
not met

====

Please provide measured Rice plant response rating for the entries that follow.
Test system: rice
method: Test C flooded paddy test
Format: in vivo, Oryza sativa
measurement-context: 125 g ai/ha, scale 0 to 100 (0 no effect, 100 complete control)

// lookup Rice plant response rating | system=rice | key= `CCc1nn(C(C)(C)C)cc1C(=O)Nc1cccc(C(C)=NO)c1`
45

Give rice Rice plant response rating for `CCc1nn(C(C)(C)C)nc1C(=O)Nc1cc(C(=O)N(C)CC)ccc1F`
55

Form: Entry = `CCc1nn(C(C)(C)C)cc1C(=O)Nc1cc(C(=O)NC)ccc1F` | System = rice | Rice plant response rating = ____
25

Entry `CCN(C)C(=O)c1cccc(NC(=O)c2sc(C(C)(C)C)nc2C)c1` , system rice: what Rice plant response rating was measured?
0

What is its Rice plant response rating for rice? Entry: `CCNC(=O)c1cccc(NC(=O)c2nn(C(C)C)nc2C)c1`
0

State its Rice plant response rating on rice: `CCn1nc(C(C)(C)C)cc1C(=O)Nc1cc(C(=O)N2CCCC2)ccc1F`
85

====

So I've got a bunch of compounds here, and I need their Velvetleaf plant response rating values.
Test system: velvetleaf
method: Test B pre-/postemergence herbicide test
Type: in vivo, Abutilon theophrasti
measurement-context: 125 g ai/ha; visual rating, scale 0 (no effect) to 100 (complete control); postemergence
Output: the number by itself.

Form field: reported Velvetleaf plant response rating of `COC(=O)c1ccc(F)c(NC(=O)c2nn(C(C)C)nc2C)c1`
20

Can you look up the measured Velvetleaf plant response rating of `Cc1nn(C(C)(C)C)nc1C(=O)Nc1cccc(C(=O)N(C)C)c1` for me?
40

Query (compound): `CCc1nn(C(C)C)nc1C(=O)Nc1cccc(C(=O)N2CC=CC2)c1` ; field requested: Velvetleaf plant response rating
20

# input compound: `CCc1nn(C2CCCC2)nc1C(=O)Nc1cccc(C(=O)N(C)C)c1` ; wanted: its Velvetleaf plant response rating
30

Looking for the measured Velvetleaf plant response rating of `Cc1nn(C(C)(C)C)cc1C(=O)Nc1cc(C(=O)N(C)C)ccc1F` , can you help?
20
